Subject Of Test: T1, human CD39 expressed at the cell surface (human, UniProt P49961 1-510)
T1 construct: On CHO transfectants, Hek-293T transfectants, Ramos and Mino tumor cells; also called huCD39; CHO-huCD39
T1 sequence: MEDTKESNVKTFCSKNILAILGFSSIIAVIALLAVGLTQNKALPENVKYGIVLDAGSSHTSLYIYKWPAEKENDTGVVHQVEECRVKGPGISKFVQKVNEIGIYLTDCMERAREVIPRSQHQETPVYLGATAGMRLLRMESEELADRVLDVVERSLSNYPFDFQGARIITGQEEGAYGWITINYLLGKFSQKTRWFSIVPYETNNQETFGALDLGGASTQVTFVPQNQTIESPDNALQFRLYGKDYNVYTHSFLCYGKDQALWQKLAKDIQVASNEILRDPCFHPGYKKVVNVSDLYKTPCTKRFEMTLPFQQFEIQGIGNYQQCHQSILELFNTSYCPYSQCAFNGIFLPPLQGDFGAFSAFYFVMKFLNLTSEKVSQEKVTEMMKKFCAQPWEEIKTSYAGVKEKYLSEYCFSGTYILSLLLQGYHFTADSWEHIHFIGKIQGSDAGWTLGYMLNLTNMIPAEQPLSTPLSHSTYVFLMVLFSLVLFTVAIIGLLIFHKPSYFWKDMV
Assay Notes: flow cytometry titration on Ramos lymphoma cells (Mean of Fluorescence), panel L1*
Measurement Type: binding result

{"Binder": "mAb3 H0L1* (antibody, human IgG1, V domains shown) VH: QVQLVQSGAEVKKPGASVKVSCKASGYTFTDYNMHWVRQAPGQRLEWMGYIVPLNGGSTFNQKFKGRVTITRDTSASTAYMELSSLRSEDTAVYYCARGGTRFAYWGQGTLVTVSS VL: DIVMTQSPDSLAVSLGERATINCKASESVDNFGVSFMYWFQQKPGQPPKLLIYGASNQGSGVPDRFSGSGSGTDFTLTISSLQAEDVAVYYCQQTKEVPYTFGGGTKVEIK", "Measurement Type": "binding result", "Result": "binds"}
{"Binder": "mAb18 H3*L1* (antibody, human IgG1, V domains shown) VH: QVQLVQSGAEVKKPGASVKVSCKASGYTFTDYNMHWVRQAPGQRLEWIGYIVPLNGGSTFSQKFQGRATITVDTSASTAYMELSSLRSEDTAVYYCARGGTRFAYWGQGTLVTVSS VL: DIVMTQSPDSLAVSLGERATINCKASESVDNFGVSFMYWFQQKPGQPPKLLIYGASNQGSGVPDRFSGSGSGTDFTLTISSLQAEDVAVYYCQQTKEVPYTFGGGTKVEIK", "Measurement Type": "binding result", "Result": "binds"}
{"Binder": "mAb12 H2*L1* (antibody, human IgG1, V domains shown) VH: QVQLVQSGAEVKKPGASVKVSCKASGYTFTDYNMHWVRQAPGQRLEWMGYIVPLNGGSTFSQKFKGRATITVDTSASTAYMELSSLRSEDTAVYYCARGGTRFAYWGQGTLVTVSS VL: DIVMTQSPDSLAVSLGERATINCKASESVDNFGVSFMYWFQQKPGQPPKLLIYGASNQGSGVPDRFSGSGSGTDFTLTISSLQAEDVAVYYCQQTKEVPYTFGGGTKVEIK", "Measurement Type": "binding result", "Result": "binds"}
